Cited source for all entries: the OPERA property sets (Mansouri et al. 2018)

Here the recorded melting point is given for each entry.
Phrase the answer as number then unit, nothing more needed.

Example molecules with recorded melting point:
> print(dat)
                                   molecule       endpoint  obs.value
1          Cc1cc(OC(=O)N(C)C)n(-c2ccccc2)n1  melting point      50 °C
2                          COc1ccccc1C(=O)O  melting point     101 °C
3                     Cc1cc(Cl)ccc1OCC(=O)O  melting point     120 °C
4                                   NCCNCCN  melting point     -39 °C
5  CCC(C(N)=O)n1nnc2ccccc21 (stereo not drawn)  melting point     143 °C

Which melting point reading was recorded for the molecule CCCCN(CC)C(=O)SCCC ?
-22 °C

Here is the next molecule: CC(=O)OC1CCC(C(C)(C)C)CC1 (stereo not drawn)
-50 °C

Now this one: CC(=O)O
16.6 °C

Here is the next molecule: CC1(C)C(=O)N(Br)C(=O)N1Cl
164 °C

What do you get for Nc1cc2ccccc2cc1N ?
199 °C

====

Endpoint: log10 vapour pressure (mmHg)
I'd appreciate a reply containing only the number, no unit.

Record excerpt, results attached:
> print(dat)
                                   molecule                      endpoint  obs.value
1                        FC(F)(F)C(F)(Cl)Cl  log10 vapour pressure (mmHg)       3.21
2  CCOC(=O)C1=NN(c2ccc(Cl)cc2Cl)C(C)(C(=O)OCC)C1 (stereo not given)  log10 vapour pressure (mmHg)      -7.33
3               Clc1ccc(Oc2ccccc2Cl)c(Cl)c1  log10 vapour pressure (mmHg)      -3.73
4                                CCc1ccccn1  log10 vapour pressure (mmHg)      0.689
5                            O=C1CCCC(=O)O1  log10 vapour pressure (mmHg)      -2.52
6                              CC(C)CC(=O)O  log10 vapour pressure (mmHg)     -0.356

Entry under review: COC(=O)C(C)Oc1ccc(Oc2ccc(Cl)cc2Cl)cc1 (stereo not given) . Reported log10 vapour pressure (mmHg)?
-5.46

Item: O=C(O)C(F)(F)C(F)(F)C(F)(F)C(F)(F)C(F)(F)C(F)(F)C(F)(F)F
-0.28

Try the molecule CC=CCCl
1.84

Then COc1ccc(C(O)(c2cncnc2)C2CC2)cc1 (stereo not given) ?
-6.7

Try the molecule CCCSCCC
0.81

Continue with CC[Si](Cl)(CC)CC
0.83

What about this molecule? Clc1cc(Cl)c(-c2ccccc2)c(Cl)c1
-3.15

====

Details: fish
Recorded log10 BCF by entry

Check out these entries, answers already filled in.
> print(dat)
                                compound  obs.value
1                              C=CC(=C)C        1.3
2        O=c1n(CCO)c(=O)n(CCO)c(=O)n1CCO        0.2
3  CCC(C)c1ccc(O)cc1 (centres undefined)       1.31
4       Cc1cc(C(C)(C)C)c(O)c(C(C)(C)C)c1       3.03
5    CC1OC(C)OC(C)O1 (centres undefined)       0.48
6        C=CC(Cl)CCl (centres undefined)       1.11

Sample Cc1ccc(O)cc1[N+](=O)[O-] — what was its log10 BCF?
1

Moving on to COc1c(Cl)c(Cl)cc(Cl)c1Cl
3.69

What do you have for CN(C)P(=O)(N(C)C)N(C)C ?
-0.3

====

Endpoint: melting point (°C)
# unit: °C | format: bare number

Reference set, count: 5
> print(dat)
                        compound       endpoint  readout.unit  obs.value
1  Nc1ccc(S(=O)(=O)Nc2cnccn2)cc1  melting point            °C        251
2                      S=C1NCCN1  melting point            °C        203
3                        COC1CC1  melting point            °C       -119
4       CCOC(=O)c1cc2ccccc2[nH]1  melting point            °C        124
5                   CCC(C)(CC)CC  melting point            °C      -90.9

What does the data say about its melting point? Entry: O=CCc1ccccc1
33.5

====

Endpoint: boiling point

Known boiling point results, listed for orientation:
> print(dat)
                                    compound  obs.value
 1                              CCCCCCC(=O)O     222 °C
 2                                 OCCCCCCCO     262 °C
 3                           CCCCCCCCCCCCCCO     289 °C
 4             O=C(c1ccc(Cl)cc1)c1ccc(Cl)cc1     353 °C
 5  C=C[Si]1(C)O[Si](C)(C=C)O[Si](C)(C=C)O[Si](C)(C=C)O1 (centres undefined)     224 °C
 6                          CC(C)(C)C(C)(C)O     131 °C
 7                                   CCCCCCN     133 °C
 8                    CCOC(=O)CCCCCCC(=O)OCC     283 °C
 9                                C=COC(C)=O    72.5 °C
10                                 CN(C)CCCN     133 °C

Entry C=C(Cl)C(=C)Cl has what boiling point?
98 °C

How about this compound: CCOC(=O)c1ccccn1
243 °C

Check CCC(C)CC(CC)CC (centres undefined) too.
158 °C

Repeat for the following compound: C=COC(=O)CC
91.2 °C

====

Each entry below lists one item and its recorded boiling point value.

The following compounds have reported results that may help.
> print(dat)
                         compound       endpoint  obs.value
1              FC(F)(F)SSC(F)(F)F  boiling point    34.6 °C
2                 CC(=O)OC1CCCCC1  boiling point     173 °C
3  C=CCOCC1CO1 (stereo not drawn)  boiling point     154 °C
4                       Cl/C=C\Cl  boiling point    54.4 °C
5    CC(C)COP(=O)(OCC(C)C)OCC(C)C  boiling point     264 °C
6                          CCOCCO  boiling point     135 °C
7   CC1(C)[C@H]2CC=C(CO)[C@@H]1C2  boiling point     222 °C

Attention now shifts to the item below.
GET /values?readout=boiling point&item= CC(=O)Oc1cc(C(C)C)ccc1C
246 °C

====

Decide using melting point alone. Strictly below 40 °C: Met. Equal to or above 40 °C: Not met.

> print(dat)
                          molecule  discrete.label
1                          OCC(F)F             Met
2                 O=C=NCCCCCCN=C=O             Met
3   CCCOc1ccc2[nH]c(NC(=O)OC)nc2c1         Not met
4        O=C(C=Cc1ccccc1)c1ccccc1O         Not met
5  COc1ccc(C2C(=O)c3ccccc3C2=O)cc1         Not met

Is the reported melting point for CNC(=O)COc1ccccc1OCC(O)CNC(C)(C)C (stereo not drawn) strictly below 40 °C?
Not met

Param item: Clc1ccc(Br)cc1Cl
Met

Lookup O=C([O-])Cc1ccccc1Nc1c(Cl)cccc1Cl.[Na+]
Not met

Now the same for O=C(O)c1cccc2cccc(C(=O)O)c12
Not met

Also check CCC(O)C(=O)O (stereo not drawn)
Not met

# iterate: CC(C)C(O)C(C)(C)C (stereo not drawn)
Met

====

Response field label: string, one of MET (boiling point strictly below 200 °C) or NOT MET.

Answered examples (2):
> print(dat)
                  compound  discrete.label
1            Cc1cccc(N)c1N         NOT MET
2  CCCCCCCCCCCCCCCc1ccccc1         NOT MET

Is boiling point strictly under 200 °C for the entry CCCCCCOc1ccccc1 ?
NOT MET

Same question for Cc1cnc2ccccc2c1C please.
NOT MET

And the next one, CC=C1CC2C=CC1C2 (centres undefined) ?
MET

Now try CCCCC(C)CCCC .
MET
